The following compounds are listed with their measured IC50 values.
target: hP2X7 (Homo sapiens, UniProt Q99572); construct: expressed in transfected cells; host or cells: 1321N1 astrocytoma cells; assay: P2X7 antagonism: ligand-induced Ca2+ flux in 1321N1 astrocytoma cells overexpressing hP2X7; format: cell-based; conditions: pIC50 = -log(IC50), read-out: hP2RX7pIC50 (mean pIC50 values) (converted)
Sequence (Q99572 whole entry): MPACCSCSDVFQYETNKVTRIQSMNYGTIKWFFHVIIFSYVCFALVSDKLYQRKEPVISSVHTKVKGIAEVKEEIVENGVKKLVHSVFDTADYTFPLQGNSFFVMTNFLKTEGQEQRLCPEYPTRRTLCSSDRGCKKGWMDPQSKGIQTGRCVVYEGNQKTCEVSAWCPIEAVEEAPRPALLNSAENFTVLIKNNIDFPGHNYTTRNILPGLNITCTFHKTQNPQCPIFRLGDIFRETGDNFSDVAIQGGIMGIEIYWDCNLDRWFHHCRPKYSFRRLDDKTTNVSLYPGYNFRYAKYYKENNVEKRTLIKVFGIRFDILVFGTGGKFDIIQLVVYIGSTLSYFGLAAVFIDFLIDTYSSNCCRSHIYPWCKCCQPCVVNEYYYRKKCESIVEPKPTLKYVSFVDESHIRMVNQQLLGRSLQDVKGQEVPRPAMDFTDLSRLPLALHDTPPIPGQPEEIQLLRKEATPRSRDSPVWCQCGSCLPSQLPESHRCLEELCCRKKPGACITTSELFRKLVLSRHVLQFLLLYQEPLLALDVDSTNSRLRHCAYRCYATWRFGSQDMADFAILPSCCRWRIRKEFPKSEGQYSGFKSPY
Unit µM implied. Number only.

// solved cases for IC50 follow
- COMPOUND: "O=C(NCC(c1cnc(C(F)(F)F)nc1)N1CCOCC1)c1cccc2nc(N3CCCOCC3)ccc12 (stereo not drawn)"
  DATA_VALUE: 0.0912
- COMPOUND: "O=C(NCC(c1cnc(O)nc1)N1CCC(F)(F)CC1)c1cccc2nc(N3CCOCC3)ccc12 (stereo not drawn)"
  DATA_VALUE: 1.05

The recorded IC50 for O=C(NCC(c1cccnc1Cl)N1CCC(F)(F)CC1)c1cccc2ncccc12 (stereo not drawn) is 3.63
